# Target entity: BRD4 (BD1) (Homo sapiens)
# Construct: longer constructs also being possible, preferably amino acids 44-168
# Measurement notes: Binding assay BRD4/acetylated peptide H4 (TR-FRET protein-protein interaction assay)
# Settings: BRD4 (BD1) / acetylated histone H4 peptide
pIC50: −log10 of the molar value.
Param threshold (7) applies to pIC50; output Fulfilled when value >= threshold, Not fulfilled when value < threshold.

These solved cases illustrate the format of a correct answer.
query: Decide: is the reported value of pIC50 for CNC(=O)N1N=C(c2ccc(N3CCC4(CCCC4)CC3)cc2)c2cc(OC)c(OC)cc2C[C@@H]1C [Example 9.1] equal to or greater than 7?
result: Not fulfilled

query: Entry CNC(=O)N1N=C(c2ccc(N3CC4(CCS4(=O)=O)C3)cc2)c2cc(-n3nc(C)cc3C)ccc2CC1C (racemic) [Example 17] please
result: Fulfilled

query: Same thing, different compound: CNC(=O)N1N=C(c2ccc(N3C(=O)[C@@H]4CC[C@H]3C4)cc2)c2cc(OC)c(OC)cc2C[C@@H]1C (relative stereo) [Example 2]
result: Fulfilled

query: Next compound: CNC(=O)N1N=C(c2ccc(-c3ccc4c(c3)CCO4)cc2)c2cc(OC)c(OC)cc2CC1C (racemic) [Example 22]
result: Fulfilled

query: Same question, CNC(=O)N1N=C(c2ccc(N3CC4(CCS4(=O)=O)C3)cc2)c2cc(-n3nc(C)cc3C)ccc2C[C@@H]1C [Example 17.2] this time
result: Fulfilled

query: Same read-out for CNC(=O)N1N=C(c2ccc(N3C[C@@H]4C[C@H]3CN4C)cc2)c2cc(OC)c(OC)cc2CC1C (relative stereo) [Example 40] ?
result: Not fulfilled

Others:
query: Reported pIC50 reaches at least 7 for CNC(=O)N1N=C(c2ccc(N3CC4(CCS4(=O)=O)C3)cc2)c2cc(OC)c(OC)cc2C[C@H]1C [Example 3.2] ?
result: Not fulfilled

query: Another compound to check: CNC(=O)N1N=C(c2ccc(N3C[C@H]4CC[C@@H](C3)O4)cc2)c2cc(OC)c(OC)cc2C[C@@H]1C [Example 4.2]
result: Fulfilled

query: For CNC(=O)N1N=C(c2ccc(N3CC4(CCS4(=O)=O)C3)cc2)c2cc(OC)c(OC)cc2C[C@@H]1C [Example 3.1] then?
result: Fulfilled

query: Field entry: CNC(=O)N1N=C(c2ccc(N3C[C@@H]4C[C@H]3CN4C)cc2)c2cc(OC)c(OC)cc2C[C@@H]1C (relative stereo) [Example 40.2]
result: Not fulfilled

query: Field entry: CNC(=O)N1N=C(c2ccc(N3CCC4OCCC4C3)cc2)c2cc(OC)c(OC)cc2CC1C (racemic) [Example 36]
result: Fulfilled

query: Request: CNC(=O)N1N=C(c2ccc(N3[C@@H]4CC[C@H]3CC(=O)C4)cc2)c2cc(OC)c(OC)cc2C[C@@H]1C [Example 6.2]
result: Fulfilled

query: Now the same for CNC(=O)N1N=C(c2ccc(N3CC4(CCS4(=O)=O)C3)cc2)c2cc(OC(F)(F)F)ccc2C[C@@H]1C [Example 18.2]
result: Fulfilled

query: What do you get for CNC(=O)N1N=C(c2ccc(N3CC4(CCS4(=O)=O)C3)cc2)c2cc(OC(F)(F)F)ccc2CC1C (racemic) [Example 18] ?
result: Fulfilled

query: Also need CNC(=O)N1N=C(c2ccc(N3C[C@@H]4C[C@H]3CO4)cc2)c2cc(OC)c(OC)cc2C[C@@H]1C [Example 35] , thanks.
result: Not fulfilled

query: For CNC(=O)N1N=C(c2ccc(N3CC4(CCS4(=O)=O)C3)cc2)c2cc(OC(F)(F)F)ccc2C[C@H]1C [Example 18.1] then?
result: Not fulfilled

query: Thanks! And CNC(=O)N1N=C(c2ccc(N3CC4(COC4)C3)cc2)c2cc(OC)c(OC)cc2C[C@@H]1C [Example 5.1] ?
result: Fulfilled

query: Can you check CNC(=O)N1N=C(c2ccc(N3C[C@H]4CC[C@@H](C3)O4)cc2)c2cc(OC)c(OC)cc2C[C@H]1C [Example 4.1] next?
result: Not fulfilled

---

# Target entity: BRD4 (BD1) (Homo sapiens, UniProt O60885)
# Construct: longer constructs also being possible, preferably amino acids 44-168
# Measurement notes: Binding assay BRD4/acetylated peptide H4 (TR-FRET protein-protein interaction assay)
# Settings: BRD4 (BD1) / acetylated histone H4 peptide
Exam item: assign yes to entries whose IC50 is below 100 nM and no to entries at or above 100 nM. Note that a value of exactly 100 nM receives no.

query: Field: below-cutoff. Rule: recorded IC50 strictly less than 100 nM. Subject: CNC(=O)N1N=C(c2ccc(N3CCC4(CC3)COC4)cc2)c2cc(OC)c(OC)cc2CC1C (racemic)
result: yes

query: Please do the same for CNC(=O)N1N=C(c2ccc(-c3ccc4c(c3)OCCO4)cc2)c2cc(OC)c(OC)cc2CC1C (racemic) as well.
result: yes

query: What about this compound? CNC(=O)N1N=C(c2ccc(N3CCN4CCCC4C3)cc2)c2cc(OC)c(OC)cc2CC1C (racemic)
result: yes

query: Follow-up entry: CNC(=O)N1N=C(c2ccc(N3C[C@H]4CN(C)C[C@H]4C3)cc2)c2cc(OC)c(OC)cc2CC1C (mixture of isomers)
result: yes

query: Now this one: CNC(=O)N1N=C(c2ccc(N3CCC4(CC3)COC(=O)N4)cc2)c2cc(OC)c(OC)cc2CC1C (racemic)
result: no

Here is the next item to consider.
query: Quick check: does CNC(=O)N1N=C(c2ccc(-c3ccc4c(c3)OCO4)cc2)c2cc(OC)c(OC)cc2CC1C (racemic) have IC50 under 100 nM?
result: no

---

Would you mind telling me the reported IC50 of each entry?
# Target entity: BRD4 (BD1) (Homo sapiens)
# Construct: longer constructs also being possible, preferably amino acids 44-168
# Measurement notes: Binding assay BRD4/acetylated peptide H4 (TR-FRET protein-protein interaction assay)
# Settings: BRD4 (BD1) / acetylated histone H4 peptide
Answers are plain numbers, in nM.

Consider the following illustrative entries.
query: I have this molecule here, CNC(=O)N1N=C(c2ccc(N3CCC4(CC3)CNC(=O)C4)cc2)c2cc(OC)c(OC)cc2CC1C (racemic) , and I need its recorded IC50.
result: 100

query: Now give it for CNC(=O)N1N=C(c2ccc(N3CC4(CN(C)C4)C3)cc2)c2cc(OC)c(OC)cc2CC1C (racemic) too.
result: 100

***
query: Which IC50 value is on record for CNC(=O)N1N=C(c2ccc(N3CCC4(CCN(C)C4)CC3)cc2)c2cc(OC)c(OC)cc2CC1C (racemic) ?
result: 100

Origin of the recorded values: patent US20160129011A1
